- Tested on: ICS
- assay_notes: qHTS profiling for inhibitors of Plasmodium falciparum proliferation (AID 504749); note: nearly all actives have a fitted effect of over 60% in size
- assay_context: P. falciparum in erythrocytes, SYBR Green DNA, 72 h; series mostly up to 28.7 µM
Results filed as inconclusive are left out. Active and inactive are the calls of the source. Calls come from the whole dose curve; as a rule, active = well fitted inhibition curve with a large enough effect; inconclusive = small, poorly fitted or top-dose-only effect; inactive = flat fitted curve, though single readings scatter.
Give your call using only these classes: 1 for active, 0 for inactive

[[record]]
compound = "COc1ccc(Cc2nccc3cc(OC)c(OC)cc23)cc1OC"
group_label = 0

[[record]]
compound = "CCN1CCC[C@H]1CNC(=O)c1cc(S(N)(=O)=O)ccc1OC"
group_label = 0

[[record]]
compound = "CCCCCN(C)CCC(O)(P(=O)(O)O)P(=O)(O)O"
group_label = 0


What call does the record list for `O=C1NC(=O)C(c2ccccc2)(c2ccccc2)N1` ?
0

Try the compound `O=C1NCC2(CCN(CCc3ccccc3)CC2)O1`
0

Another compound: `NC(N)=Nc1nc(CSCC/C(N)=N/S(N)(=O)=O)cs1`
0

Another compound to look at: `CC1=C(/C=C/C(C)=C/C=C/C(C)=C/C(=O)Nc2ccc(O)cc2)C(C)(C)CCC1`
1

###

- System: astro
- assay_notes: Drug repurposing screens with cells derived from glioblastoma tumor samples (AID 1345199); note: % is set by controls: 0 for no effect and ±100 for the full control effect; nearly all actives have a fitted effect of over 40% in size
- assay_context: viability, ATP luminescence, 48 h; series mostly up to 45.9 µM
Inconclusive results are not listed. The source made the active and inactive calls. The call rests on the fitted dose curve; in most records, active means well fitted inhibition curve with a large enough effect; inconclusive means small, poorly fitted or top-dose-only effect; inactive means flat fitted curve, though single readings scatter.
// one of 1 = active, 0 = inactive, no free text

Recorded results for 3 compounds are shown here.
[[record]]
compound = "CC(=O)Oc1cc2c(s1)CCN(C(C(=O)C1CC1)c1ccccc1F)C2 (stereo not given)"
group_label = 0

[[record]]
compound = "CCCNC(=O)NS(=O)(=O)c1ccc(Cl)cc1"
group_label = 0

[[record]]
compound = "NCCS"
group_label = 0


// outcome(item) with item = `O=C(O)CCc1nc(-c2ccccc2)c(-c2ccccc2)o1`
0

Item: `N#C[C@H]1C[C@H]2C[C@@H]2N1C(=O)[C@@H](N)C12CC3CC(CC(O)(C3)C1)C2`
0

Proceed to Cc1nnc(C(C)C)n1C1C[C@H]2CC[C@@H](C1)N2CC[C@H](NC(=O)C1CCC(F)(F)CC1)c1ccccc1 (stereo not given in full)
0

Also need `CCCCC1C(=O)N(c2ccccc2)N(c2ccccc2)C1=O` , thanks.
0

Another compound: `O=C(NCCN1CCOCC1)c1ccc(Cl)cc1`
0

###

- assay_notes: High-throughput drug toxicity screening in the BPDCN cell line Gen2.2 (AID 1224824);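 note: cells exposed to compounds for 48 h before reading; 100% = DMSO and 0% = bortezomib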
- assay_context: Gen2.2 BPDCN cells; at 45.8 µM (top of the series) unless noted
Labelling field: enter class 1 if recorded cell viability, % of control (lower = more cytotoxic) is less than 50%. Enter class 0 if it equals or exceeds that cut-off.

For this compound, is cell viability, % of control (lower = more cytotoxic) lower than 50%? `Cc1ccc(Nc2cc(-c3cccc(N4C(=O)c5ccccc5C4=O)c3)ncn2)cc1NS(C)(=O)=O`
class 0

###

- assay_notes: qHTS assay for measurement of the activity of small molecule inhibitors on Zika virus induced Caspase-3 activity in human iPSC derived neural progenitor cells (hNPCs) (AID 1224857); note: nearly all actives have a fitted effect of over 65% in size
- assay_context: hNPCs ZIKV-induced caspase-3/7, Caspase-Glo luminescence, 6 h; series mostly up to 45.7 µM
- Experimental: National Center for Advancing Translational Sciences [NCATS] Johns Hopkins University School of Medicine […] The medium for hNPCs consists of DMEM/F12, N2 supplement (ThermoFisher, Cat.# 17502048), NEAA (ThermoFisher, Cat. # 11140050), 2 ug/ml heparin, 2 uM cyclopamine, and B27 (ThermoFisher, Cat. # 17504044). […] The luminescence intensity of the assay plates was measured using a ViewLux plate reader (PerkinElmer). […]
Records with an inconclusive call do not appear. Calls of active or inactive are those of the source. The call rests on the fitted dose curve; in most records, active means well fitted inhibition curve with a large enough effect; inconclusive means small, poorly fitted or top-dose-only effect; inactive means no such curve, though single readings can be large or run the other way.
Log the outcome using a class from T = active, F = inactive

[[record]]
compound = "O=C(N[C@@H](c1ccccc1)[C@@H]1CCCCN1)c1cccc(C(F)(F)F)c1Cl"
group_label = "F"

[[record]]
compound = "Clc1cc(Cl)cc(CNc2ncncc2-c2ccc3c(c2)OCO3)c1"
group_label = "F"

[[record]]
compound = "CC(C)(Cc1ccc2ccccc2c1)NC[C@@H](O)COc1cccc(Cl)c1C#N"
group_label = "F"

[[record]]
compound = "CCCNC(=O)NS(=O)(=O)c1ccc(Cl)cc1"
group_label = "F"

[[record]]
compound = "COc1ccc2cccc(CCNC(C)=O)c2c1"
group_label = "F"


# fetch the recorded call for `COc1cccc(-c2cc(=O)c3ccccc3o2)c1N` here
T

Try this compound next: CN(C)CCC(c1ccccc1)c1ccccn1 (stereo not given)
F

Param item: `NC(=O)NN=Cc1ccc([N+](=O)[O-])o1`
F

Proceed to `COC(=O)N[C@H](C(=O)N1CCC[C@@H]1c1ncc(-c2ccc(-c3ccc(-c4cnc([C@@H]5CCCN5C(=O)[C@@H](NC(=O)OC)C(C)C)[nH]4)cc3)cc2)[nH]1)C(C)C`
F

Another compound to check: `C=CCc1ccc(O)c(-c2ccc(O)c(CC=C)c2)c1`
F
